Origin of the recorded values: PubChem BioAssay

Assay: inhibitors of hydroxyurea-induced Chk1 phosphorylation, primary screen, imaging, HeLa, phospho-Chk1 antibody, percent positive cells (AID 1186)
Settings: hydroxyurea-induced phospho-Chk1 immunofluorescence imaging, higher = more signal
Calls of active or inactive are those of the source. The rule behind the calls is not given here.
attribute measured: z-score

{"chemical string": "C=CCNC(=O)[C@H]1[C@@H]2C(=O)O[C@@H](c3ccccc3)[C@@H](c3ccccc3)N2[C@@H](c2ccc(O)cc2)[C@]12C(=O)N(C(=O)OCCOC)c1ccc(C#CCC(C(=O)OC)C(=O)OC)cc12", "attribute measured": "z-score", "result": "-0.0546 (inactive)"}
{"chemical string": "CO[C@H]1O[C@H](CO)[C@@H](OC(=O)Nc2ccc(C#N)cc2)[C@@H]2OC(=O)[C@H](Cc3cccc(Br)c3)C/C=C/C[C@@H](Cc3cccc(Br)c3)C(=O)O[C@@H]12", "attribute measured": "z-score", "result": "-0.353 (inactive)"}
{"chemical string": "C=C(CCCC)C(=O)CC[C@H](OC(=O)c1ccccc1-c1ccccc1C(=O)O)c1ccccc1OCCO", "attribute measured": "z-score", "result": "-0.309 (inactive)"}
{"chemical string": "CCOC(=O)C1=C[C@@H](C(C)(C)C)N(S(=O)(=O)c2ccc(C)cc2)[C@H]1c1ccccc1", "attribute measured": "z-score", "result": "0.327 (inactive)"}
{"chemical string": "CC(C)C(=C=CC[C@@H](O)c1cccc(OCCO)c1)C[C@@H](O)c1ccccn1", "attribute measured": "z-score", "result": "-0.122 (inactive)"}
{"chemical string": "COC(=O)[C@@]1(Cc2ccc(F)cc2)[C@H]2c3cc(C(=O)N4CCCC4)n(CC4CC4)c3C[C@H]2CN1C(=O)c1ccccc1", "attribute measured": "z-score", "result": "0.396 (inactive)"}
{"chemical string": "C=C(COC)/C(=C/C[C@@H](OC(C)=O)c1ccc(CO)o1)c1cc(C(=O)OC)ccc1OC", "attribute measured": "z-score", "result": "-1.06 (inactive)"}

----------
Assay: small-molecule microarray binders of probe aDKK1, primary screen, biochemical, biotinylated probe, 635/667 nm fluorescence (AID 1099);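 note: score merges 667nm spot fluorescence with signal to noise across triplicate slides; reference of the scale not given here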
Conditions: higher = more signal
Decide by composite z-score: equal to or exceeding 1 means Yes, less means No.

{"compound": "COc1cccc(/C=C(\\C#N)C(=O)Nc2c(C)n(C)n(-c3ccccc3)c2=O)c1", "label": "No"}
{"compound": "COCCCNC(=O)[C@@]1(c2ccc([N+](=O)[O-])cc2)CC(=O)N(C(C)C)[C@@H]1c1ccc(CO)cc1", "label": "No"}
{"compound": "C=CCNC(=O)[C@@H]1[C@H]2C(=O)O[C@H](c3ccccc3)[C@H](c3ccccc3)N2[C@H](c2ccc(O)cc2)[C@@]12C(=O)Nc1ccc(C#CCC(C(=O)OC)C(=O)OC)cc12", "label": "No"}
{"compound": "CC1(C)C(=O)C(c2ccccc2)=C2CN3C(=O)N(CCc4ccccc4)C(=O)C3(Cc3ccc(F)cc3)C=C21 (stereo unspecified)", "label": "Yes"}
{"compound": "COCCOC(=O)N1C(=O)[C@@]2(c3ccccc31)[C@H](c1ccccc1OCCO)N1[C@H](c3ccccc3)[C@H](c3ccccc3)OC(=O)[C@H]1[C@@H]2C(=O)N1CCCCCCC1", "label": "Yes"}
{"compound": "COc1ccc(C#Cc2ccc3c(c2)[C@]2(C(=O)N3)[C@H](c3ccc(OCCO)cc3)N3[C@H](c4ccccc4)[C@H](c4ccccc4)OC(=O)[C@H]3[C@@H]2C(=O)N2CCc3cc(OC)c(OC)cc3C2)cc1", "label": "Yes"}
